From: the kinase profiling compilation of Christmann-Franck et al. (2016)

tgt: UniProt Q16288
Sequence (Q16288 whole entry, looked up): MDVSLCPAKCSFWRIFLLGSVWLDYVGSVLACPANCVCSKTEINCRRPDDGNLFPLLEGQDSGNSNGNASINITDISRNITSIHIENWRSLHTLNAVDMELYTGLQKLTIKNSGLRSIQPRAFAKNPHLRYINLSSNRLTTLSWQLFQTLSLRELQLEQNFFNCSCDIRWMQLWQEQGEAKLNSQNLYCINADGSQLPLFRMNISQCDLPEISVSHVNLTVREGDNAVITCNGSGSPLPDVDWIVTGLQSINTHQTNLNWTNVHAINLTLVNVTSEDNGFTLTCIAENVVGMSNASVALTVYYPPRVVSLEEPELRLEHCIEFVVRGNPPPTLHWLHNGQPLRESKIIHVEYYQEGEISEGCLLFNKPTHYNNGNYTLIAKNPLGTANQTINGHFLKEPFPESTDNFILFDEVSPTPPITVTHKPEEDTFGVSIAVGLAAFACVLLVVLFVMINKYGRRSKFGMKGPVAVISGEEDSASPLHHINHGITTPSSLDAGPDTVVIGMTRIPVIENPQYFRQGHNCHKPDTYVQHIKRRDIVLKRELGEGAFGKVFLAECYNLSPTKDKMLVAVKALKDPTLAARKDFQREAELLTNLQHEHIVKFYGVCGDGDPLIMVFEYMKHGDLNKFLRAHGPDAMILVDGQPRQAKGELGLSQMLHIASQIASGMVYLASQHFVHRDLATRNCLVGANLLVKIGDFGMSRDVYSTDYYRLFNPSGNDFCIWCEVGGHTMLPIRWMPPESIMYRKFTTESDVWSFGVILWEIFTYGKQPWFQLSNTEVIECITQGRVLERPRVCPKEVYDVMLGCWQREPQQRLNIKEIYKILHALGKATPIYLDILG
assay.summary: radiometric filter-binding kinase assay, Kinase HotSpot
run.parameters: compound 0.5 µM; ATP 10 µM
property: residual activity
Express your answer as a number followed by its unit.

| chemical.smiles | residual activity |
| --- | --- |
| O=C1NC(=O)c2c1c1c3ccccc3[nH]c1c1[nH]c3cc(Br)ccc3c21 | 28.8% |
| CCCCc1c(-c2ccc(O)cc2)[nH]c2nccnc12 | 76.1% |
| O=S(=O)(NCCNC/C=C/c1ccc(Br)cc1)c1cccc2cnccc12 | 79.6% |
| c1ccc(-c2cnc(Nc3ccc(OCCN4CCCC4)cc3)s2)cc1 | 22.6% |

Q: Given the compound "O=C(c1ccccc1)c1ccc(N2CCOCC2)cc1O" , write its reported residual activity.
Ans: 93.7%

Q: Given the compound "Cc1cc(Nc2nc(-c3ccccc3)nc3ccccc23)n[nH]1" , write its reported residual activity.
Ans: 2.01%

----------
tgt: AKT3 (human)
assay.summary: radiometric filter-binding kinase assay, Kinase HotSpot
run.parameters: compound 0.5 µM; ATP 10 µM
# residual activity per entry
Express your answer as a number followed by its unit.

| chemical.smiles | residual activity |
| --- | --- |
| O=S(=O)(NCCNC/C=C/c1ccc(Br)cc1)c1cccc2cnccc12 | 69% |
| CCOc1cc2ncnc(Nc3cccc(Br)c3)c2cc1OCC | 104% |
| COc1cc2ncnc(Nc3ccc(O)c(Br)c3)c2cc1OC | 101% |

Q: Given the molecule "COc1cc2c(N3CCN(C(=O)Nc4ccc(OC(C)C)cc4)CC3)ncnc2cc1OCCCN1CCCCC1" , write its reported residual activity.
Ans: 106%

Q: Given the molecule "O=C1NC(=O)c2c1c1c3ccccc3[nH]c1c1[nH]c3cc(Br)ccc3c21" , write its reported residual activity.
Ans: 91.1%

----------
# residual activity per entry
tgt: NEK7 (human)
assay.summary: radiometric filter-binding kinase assay, Kinase HotSpot
run.parameters: compound 0.5 µM; ATP 10 µM
Expressed in %, but write only the number.

Guide cases for residual activity, answers given:
| chemical.smiles | residual activity, % |
| --- | --- |
| COc1cc2ncnc(Nc3ccc(O)c(Br)c3)c2cc1OC | 101 |
| COc1cc2c(cc1OC)-c1[nH]nc(Nc3cccc(F)c3)c1C2 | 100 |
| N#Cc1c(NC(=O)c2cccc3ccccc23)sc2c1CCCC2 | 89.2 |

We now examine a further compound.
Q: Provide residual activity, tested on NEK7 (human), for "O=C(O)c1ccc2c3c1cccc3c(=O)n1c3ccccc3nc21" .
Ans: 105

----------
# residual activity per entry
tgt: PAK7 (human) (UniProt Q9P286)
Sequence (Q9P286 whole entry, looked up): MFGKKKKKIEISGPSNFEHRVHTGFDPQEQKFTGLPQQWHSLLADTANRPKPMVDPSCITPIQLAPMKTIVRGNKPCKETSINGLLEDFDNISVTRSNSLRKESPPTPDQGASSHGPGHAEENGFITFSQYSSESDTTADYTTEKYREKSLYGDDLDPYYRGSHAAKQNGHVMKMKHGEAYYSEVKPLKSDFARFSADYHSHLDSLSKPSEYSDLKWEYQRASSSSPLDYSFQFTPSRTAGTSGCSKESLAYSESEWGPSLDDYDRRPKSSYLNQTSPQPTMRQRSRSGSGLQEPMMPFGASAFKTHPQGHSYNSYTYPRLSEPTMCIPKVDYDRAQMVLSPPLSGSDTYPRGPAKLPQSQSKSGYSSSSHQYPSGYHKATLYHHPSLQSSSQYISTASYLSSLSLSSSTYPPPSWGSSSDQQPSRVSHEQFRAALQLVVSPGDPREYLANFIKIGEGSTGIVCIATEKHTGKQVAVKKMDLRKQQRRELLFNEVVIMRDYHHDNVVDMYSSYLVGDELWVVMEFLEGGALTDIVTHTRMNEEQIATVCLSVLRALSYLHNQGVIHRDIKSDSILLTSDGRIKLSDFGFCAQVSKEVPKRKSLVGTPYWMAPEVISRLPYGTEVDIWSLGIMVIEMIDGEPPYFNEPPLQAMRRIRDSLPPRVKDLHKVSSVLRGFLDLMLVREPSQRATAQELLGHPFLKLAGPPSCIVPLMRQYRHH
assay.summary: radiometric filter-binding kinase assay, Kinase HotSpot
run.parameters: compound 0.5 µM; ATP 10 µM
Expressed in %, but write only the number.

Guide cases for residual activity, answers given:
| chemical.smiles | tgt | property | reading.unit | reported.value |
| --- | --- | --- | --- | --- |
| O=c1c2ccccc2[nH]c(=S)n1CCN1CCC(=C(c2ccc(F)cc2)c2ccc(F)cc2)CC1 | PAK7 (human) (UniProt Q9P286) | residual activity | % | 97.4 |
| COc1cc2c(cc1OC)-c1[nH]nc(Nc3cccc(F)c3)c1C2 | PAK7 (human) (UniProt Q9P286) | residual activity | % | 93.2 |

Q: Given the compound "N/C(=N\N=C/c1ccc(-c2cccc([N+](=O)[O-])c2)o1)N[N+](=O)[O-]" , write its reported residual activity.
Ans: 97
